Molecular target: human CB1 receptor (hCB1) (Homo sapiens)
Sequence (P21554 whole entry): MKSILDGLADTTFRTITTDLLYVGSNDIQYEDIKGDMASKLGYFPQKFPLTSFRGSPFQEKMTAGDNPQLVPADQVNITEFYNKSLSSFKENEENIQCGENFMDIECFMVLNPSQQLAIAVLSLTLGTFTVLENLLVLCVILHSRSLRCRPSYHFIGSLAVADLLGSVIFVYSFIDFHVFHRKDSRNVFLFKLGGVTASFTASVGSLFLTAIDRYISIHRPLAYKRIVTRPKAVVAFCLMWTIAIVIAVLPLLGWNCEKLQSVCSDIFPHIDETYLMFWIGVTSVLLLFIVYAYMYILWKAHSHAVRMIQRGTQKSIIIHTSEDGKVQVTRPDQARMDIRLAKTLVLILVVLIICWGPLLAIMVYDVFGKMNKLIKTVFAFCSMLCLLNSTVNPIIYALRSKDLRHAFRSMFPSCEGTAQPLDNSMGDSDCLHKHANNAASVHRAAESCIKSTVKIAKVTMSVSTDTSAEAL
Test: cell-based
Type: cell-based
pEC50: −log10 of the molar value.
Recorded measurements of pEC50, one per entry

COC(=O)[C@@H](NC(=O)c1nc(-c2ccccc2)n2c1CN(C)CC2)C(C)(C)C [Compound 86] | < 5.00
CNC(=O)[C@@H](NC(=O)c1nc(-c2ccc(F)c(C(=O)N3CCOCC3)c2)n2c1CN(C)CCC2)C(C)(C)C [Compound 389] | < 5.00

Consider the molecule shown here: CNC(=O)[C@@H](NC(=O)c1nc(-c2ccccc2)n2c1CN(c1cnccn1)CC2)C(C)(C)C [Compound 301] What is its recorded pEC50?
< 5.00

Consider the molecule shown here: CNC(=O)[C@@H](NC(=O)c1nc(C2=CCCC2)n2c1CN(C)CCC2)C(C)(C)C [Compound 456] What is its recorded pEC50?
< 5.00

Consider the molecule shown here: CNC(=O)[C@@H](NC(=O)c1nc(C=C(C)C)n2c1CN(C)CC2)C(C)(C)C [Compound 257] What is its recorded pEC50?
< 5.00

Consider the molecule shown here: CNC(=O)[C@@H](NC(=O)c1nc(-c2ccsc2)n2c1CNCC2)C(C)(C)C [Compound 11] What is its recorded pEC50?
< 5.00

Consider the molecule shown here: CNC(=O)[C@@H](NC(=O)c1nc(-c2ccccc2)n2c1CN(C(=O)C1CC1)CC2)C(C)(C)C [Compound 126] What is its recorded pEC50?
< 5.00

Consider the molecule shown here: CCC(CO)NC(=O)c1nc(-c2ccccc2)n2c1CN(C)CC2 (centres unmarked) [Compound 232] What is its recorded pEC50?
< 5.00

---

Target: rat CB2 receptor (rCB2) (Rattus norvegicus)
Sequence (Q9QZN9 whole entry): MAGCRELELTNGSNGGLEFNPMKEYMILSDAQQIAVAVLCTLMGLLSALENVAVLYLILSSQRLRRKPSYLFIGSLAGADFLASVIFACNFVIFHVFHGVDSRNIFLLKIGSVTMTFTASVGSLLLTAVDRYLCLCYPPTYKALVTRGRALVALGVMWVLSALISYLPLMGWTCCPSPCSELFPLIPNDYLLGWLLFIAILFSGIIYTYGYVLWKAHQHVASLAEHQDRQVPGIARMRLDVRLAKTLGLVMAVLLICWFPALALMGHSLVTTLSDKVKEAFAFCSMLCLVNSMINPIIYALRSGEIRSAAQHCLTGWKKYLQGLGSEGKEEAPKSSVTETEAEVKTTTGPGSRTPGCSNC
Assay: cell-based
Format: cell-based
Details: agonist or inverse agonist at rCB2
MEASUREMENT_LABEL: +/− RCB2

CNC(=O)[C@@H](NC(=O)c1nc(-c2cc(Cl)c(F)cc2F)n2c1CN(C)CCC2)C1CCCCC1 [Compound 542] | +
CN1CCn2c(-c3ccccc3)nc(C(=O)N[C@H](C(=O)O)C(C)(C)C)c2C1 [Compound 281] | +
CNC(=O)[C@H](CC(C)C)NC(=O)c1nc(-c2ccc(F)c(Cl)c2)n2c1CN(C)CCC2 [Compound 537] | +
O=C(NCC1CCOCC1)c1nc(-c2ccccc2)n2c1CN(CCO)CC2 [Compound 169] | −

---

Biological target: rat CB2 receptor (rCB2) (Rattus norvegicus)
Experiment: cell-based
Assay type: cell-based
Conditions: agonist or inverse agonist at rCB2
MEASUREMENT_LABEL: +/− RCB2

Look over these answered cases.
CNC(=O)[C@@H](NC(=O)c1nc(CC(C)C)n2c1CN(C)CC2)C(C)(C)C | +
CN1CCCn2c(-c3ccccc3)nc(C(=O)Nc3cc(C(C)(C)C)on3)c2C1 | −
CNC(=O)[C@@H](NC(=O)c1nc(C(C)c2ccccc2)n2c1CN(C)CCC2)C(C)(C)C (stereo partly drawn) | +
CNC(=O)[C@@H](NC(=O)c1nc(-c2ccccc2)n2c1CN(C(C)=O)CCC2)C(C)(C)C | +
C[C@@H](NC(=O)c1nc(-c2ccccc2)n2c1CN(C(=O)OC(C)(C)C)CC2)C1CCCCC1 | −
COC(=O)[C@@H](NC(=O)c1nc(-c2ccc(C)cc2F)n2c1CNCCC2)C(C)(C)C | −

Consider the compound shown here: `CNC(=O)[C@@H](NC(=O)c1nc(-c2cc(OC)cc(C(F)(F)F)c2)n2c1CN(C)CCC2)C(C)(C)C` What is its recorded +/− RCB2?
−

Consider the compound shown here: `CN1CCCn2c(-c3ccc(F)cc3F)nc(C(=O)N[C@@H](CC(C)(C)C)C(N)=O)c2C1` What is its recorded +/− RCB2?
+

Consider the compound shown here: `COC(=O)N1CCn2c(-c3ccccc3)nc(C(=O)N[C@@H](C)c3ccccc3)c2C1` What is its recorded +/− RCB2?
−

Consider the compound shown here: `CNC(=O)[C@H](CC(C)(C)C)NC(=O)c1nc(-c2ccc(C(F)(F)F)cc2F)n2c1CN(C)CCC2` What is its recorded +/− RCB2?
+

Consider the compound shown here: `CNC(=O)[C@@H](NC(=O)c1nc(-c2cc(Cl)ccc2F)n2c1CN(C)CC2)C(C)(C)C` What is its recorded +/− RCB2?
−
